- Tested on: MS2 coat protein
- experiment.notes: apparent KD of MS2 coat protein, switch ON state; designed switch direction (-1 OFF switch, 1 ON switch): -1; higher = weaker reporter binding
- experimental.setup: FMN input: 0 or 200 uM; Eterna round: R93 (includes R88 designs)
measurement.label: apparent KD of MS2 coat protein (µM)

seq="AAAAAACAUGAGGAUCACCCAUGUCAGGAUAUCUGUAUUCAAUCCUCGGAUUGAAUACAGAGAAGGGACAUGAA [Ex1: 603]" measurement_label="apparent KD of MS2 coat protein" readout_value=0.0413
seq="GUCGUGUGAGGAUAUGGAAAGAAGAAGAAAAGGUAGAAAAACUAGAAGGCACAUGAGGAUCACCCAUGUAAGAA [JR_Exc004_Sub1709]" measurement_label="apparent KD of MS2 coat protein" readout_value=0.0241
seq="AAGAAGUCAGGAUAUGCAAAAGAAAAGAAAAGAAAAGAAAAGCAGAAGGGACAUGAGGAUCACCCAUGUAAGAA [Metsuire Cambyses]" measurement_label="apparent KD of MS2 coat protein" readout_value=0.0327
seq="AAAAAAGCAGGAUAUACGAACAUGUCGAAAGACGUGAAGGGACAUGAGGAUCACCCAUGUAGAAGGGUUAAGAA [Mat - Exclusion 2 - JL mod - D75]" measurement_label="apparent KD of MS2 coat protein" readout_value=0.166
seq="GGAAAACAUGAGGAUCACCCAUGUGAGGAUAUUGAAACAAACAAAACAAACAAACAAACAAGAAGGCACAGGAA [Exclusion one redone]" measurement_label="apparent KD of MS2 coat protein" readout_value=0.0207
seq="AAAGGACGAGGAUAUACAUGAGGAUCACCCAUGUAAAAAACAUAAUAAAAGAACUUAUGUAGAAGGCGUCCAAA [Meechl Ex3 2 R1 - Copy of Meechl Ex3 2 from Round 1]" measurement_label="apparent KD of MS2 coat protein" readout_value=0.0538

----------
- System: MS2 coat protein
- experiment.notes: apparent KD of MS2 coat protein; designed switch direction (-1 OFF switch, 1 ON switch): -1; higher = weaker reporter binding
- experimental.setup: input ligand: FMN 200 uM
The following sequences are shown together with reported apparent KD of MS2 coat protein values.
measurement.label: apparent KD of MS2 coat protein (nM)

seq="UUUAGUUCAGGAUAUGUAGAAUUAAACAUGAGGAUCACCCAUGUAGUUCCUGAUCCUGCUACAGAAGGGAACAUUU [Mat - Exclusion 5 - Eli Mod - D13] (Eterna round: R97, puzzle: Exclusion 5)" measurement_label="apparent KD of MS2 coat protein" readout_value=24.8
seq="AAUUAGCAAGCAAGAUCCCACAUGAGGAUCACCCAUGUGCUCGUCUUAUAAGGUACUGUGACGAAAGUCACGGUACC [Mat - Sensor, turn-off var - Eli Mod - D50] (Eterna round: R97, puzzle: Sensor, turn-off variant 1)" measurement_label="apparent KD of MS2 coat protein" readout_value=50.2
seq="UUUUUAGAUGAAGGAUAUACUUAACAUGAGGAUCACCCAUGUGGUGUUGUGAGUGAGUGAGUUUAGUAGAAGGUCAAUUCUUUU [JMF's solution 87] (Eterna round: R96, puzzle: Exclusion NG 2)" measurement_label="apparent KD of MS2 coat protein" readout_value=566
seq="CUGCUCCGUGUAGGAUAUCGCCGCACCACCCGGCGAGAAGGACAUGAGGAUCACCCAUGUAUGUUAUUAUCACGUGUGGCGCGA [Design 41] (Eterna round: R96, puzzle: Exclusion NG 1)" measurement_label="apparent KD of MS2 coat protein" readout_value=16.4

----------
- Tested on: MS2 coat protein
- experiment.notes: apparent KD of MS2 coat protein; designed switch direction (-1 OFF switch, 1 ON switch): -1; higher = weaker reporter binding
- experimental.setup: input ligand: FMN 200 uM
measurement.label: apparent KD of MS2 coat protein (nM)

seq="AGUACUAACACGAUAGUGUUAGUACAAUAAGCUUGUGAAACAUGAGGAUCACCCAUGUCCUCAUAAGCUCGUCUUAU [salish99_TOv2_r3_030] (Eterna round: R96, puzzle: Sensor v3, turn-off variant 2)" measured_on="MS2 coat protein" readout_value=15.1
seq="UAUAUGCAAGCGAGAUCCCACAUGAGGAUCACCCAUGUAAUAAAUAAGCACAGAAUUACUGUGAAAGCUCGUCUUAU [Winner reversed engineered 37] (Eterna round: R97, puzzle: Sensor, turn-off variant 1)" measured_on="MS2 coat protein" readout_value=92.5
seq="GUCAGCUCGUCAGGAUAUAUAUAUACAUGAGGAUCACCCAUGUUAGAUCAGCUUCGGCAGUAUAUAUAGAAGGGACGAGCUGAC [ENG2/15-B1] (Eterna round: R96, puzzle: Exclusion NG 2)" measured_on="MS2 coat protein" readout_value=153
seq="CAGUACUGAGGAUAUACAUGAGGAUCACCCAUGUGUCCCAGCUAGGAUACUAGCAAAGGUAGAAGGCAGUACUG [Mat - Exclusion 3 - Eli Mod - D15] (Eterna round: R97, puzzle: Exclusion 3)" measured_on="MS2 coat protein" readout_value=945

----------
- Tested on: MS2 coat protein
- experiment.notes: apparent KD of MS2 coat protein; higher = weaker reporter binding
- experimental.setup: Eterna round: R107; input ligand: theophylline 20 uM
measurement.label: apparent KD of MS2 coat protein (nM)

seq="ACAUGAGGAUCACCCAUGUUAAACAGGGUGCGAGGACCGGUACGGCCGCCACUCGGACAUUAUUACGAGUGAAUGGCAACGAUGU [#12 Exclusion Tryptophan A]" readout_value=24.1
seq="UGGGUCGGAUGAGUAAAUUGUCGGACUCAUCGAGGACCGGUACGGCCGCCACUCGGUUGUACAUGAGGAUCACCCAUGUCAGGGU [#1 Same State - Tryptophan A Attempt #17 (HarryS)]" readout_value=336
seq="UGGGUAGCAUAGAUUGAUAGUUAAACUGAAGGAGCGAGAAUAAUCUCAGGUAGGUCGCAGACAUGAGGAUCACCCAUGUAGAUGG [Same State Arginine A GF16]" readout_value=129
seq="UCUUACUUGGUAGAUACCAGCGUGUUAUCUUUCUUUUGACAUGAGGAUCACCCAUGUAUAUGCCCUUGGCAGCUGCAUAGUGUGU [#02 Same State - Theophylline B]" readout_value=41.7
seq="CGACUACAGCGUGAUACCAGUGACAGAUACCAGUCUAGACAUGAGGAUCACCCAUGUACGCGCCCUUGGCAGCACACUAGAUCGA [#29 Same State - Theophylline B]" readout_value=128

----------
- Tested on: MS2 coat protein
- experiment.notes: apparent KD of MS2 coat protein; designed switch direction (-1 OFF switch, 1 ON switch): 1; higher = weaker reporter binding
- experimental.setup: input ligand: none
Output True for apparent KD of MS2 coat protein not less than 0.4 µM; output False otherwise.

seq="GUUAGGAAUCUAGCAAACAUGAGGAUCACCCAUGUUAGUGGGAAGGAUAUGGUACAGAAACUGUACCAGAAGGUCUUAUUAAUU [Omei SS(NG) 3 AV2] (Eterna round: R96, puzzle: Same State NG 3)" group=False
seq="GGUAGGUUACUACCAGACAUGAGGAUCACCCAUGUAAGUGGGAAGGAUAUGGUACCUUUUAGGUACCAGAAGGUCCAUAUAGUU [JL SSNG3 1.43] (Eterna round: R96, puzzle: Same State NG 3)" group=True
seq="GAAAUAUAACAUGAGGAUCACCCAUGUACAUUGGUACGGCGGAAGGAUAUGAAAGACAUGGUCAAUUAGAAGGUCCUAUCAAAA [Eternabot solution 50] (Eterna round: R96, puzzle: Same State NG 3)" group=False
seq="GGUAGGUUACUACCAUACAUGAGGAUCACCCAUGUAAAUGGGAAGGAUAUGGUACCUAUUUGGUACCAGAAGGUCCAAUUAAUU [JL Fiskers NG3ss - 2 mod 3] (Eterna round: R96, puzzle: Same State NG 3)" group=True
seq="AGACACAUGAGGAUCACCCAUGUCAUGAGCUUAGCUCGGGCACAGGAUAUCCGGUCCUAGAGACCGGAGAAGGGUGGCCGAAAA [Zara MOD] (Eterna round: R96, puzzle: Same State NG 3)" group=True
seq="AUUGCUUACGCAGGAUAUGAUGCGAAAAUUGCGUCAGAAGGGUGAAGUGACUCAUUGCAACAGGACAUGAGGAUCACCCAUGUC [SameState NG1 #90] (Eterna round: R96, puzzle: Same State NG 1)" group=True
seq="GUGCUCGUGUAAGGAUAUGCUUCCGUUUCGGCUGCAGAAGGUACUAUAAUACAUGAGGAUCACCCAUGUCUCUUUUGUUUGGUG [salish99_SSNG1_r04_908] (Eterna round: R96, puzzle: Same State NG 1)" group=False
seq="GUAGCAUACCGAGGAUAUUCAUACCGGAAACGGACAUGAGGAUCACCCAUGUGGCGAAAGCCUUGGGAGAAGGCGGAAUGCUAC [Xeonanis - 20 Mod75] (Eterna round: R96, puzzle: Same State NG 2)" group=True
seq="AAUUAAUUAAUUAAGUACAUGAGGAUCACCCAUGUAAGUGAUCAGGAUAUCAGCUCGAAUAGAGCUGAGAAGGGAUCCAUGUAC [SSNG3/15-A1] (Eterna round: R96, puzzle: Same State NG 3)" group=False
seq="CUGCUCGUGUGAGGAUAUGCCGCCGUUUCGGCUGCAGAAGGUGCUACGUAACAUGAGGAUCACCCAUGUCUCUGUUGUUUCGUU [salish99_SSNG1_r04_949] (Eterna round: R96, puzzle: Same State NG 1)" group=False
seq="AUAAAACAUGAGGAUCACCCAUGUCAACAAAAUCGAGGAUAUGGACAGACUUCGGUCUGUCCAGAAGGCGAAUAAU [salish99_ss1_r3_100] (Eterna round: R96, puzzle: Same State 1)" group=False
seq="GGUCCAUCAUGAGGAUAUGGCACCUUAUUGGUGCCAGAAGGCAUGUAAAUUAUAAUAACAUGAGGAUCACCCAUGUAUUGGACC [Eli NG1ss - 95] (Eterna round: R96, puzzle: Same State NG 1)" group=True
seq="GGUUGUUAGUGAGGAUAUACGUACACUCUACAUGAGGAUCACCCAUGUUUUGCCCUUGAUUGUUGGUAGAAGGCACUUGGUUAU [JR_SSNG2_Sub050] (Eterna round: R96, puzzle: Same State NG 2)" group=False
seq="AUUAUUUAUGCAGGAUAUGAUUAACAUGAGGAUCACCCAUGUGGUGUUGUGAGUAAGGAGAGUGAUCAGAAGGGCAUUUUUAUU [JMF's solution 52] (Eterna round: R96, puzzle: Same State NG 2)" group=True
seq="ACAUGAGACCAAGGAUAUGUUGUACCUACAUGUGACAUGAGGAUCACCCAUGUGGUAAGUAUGAGACAGAAGGUGGAGAUAUGU [Equivalence 27 - Jieux - Same State NG 2] (Eterna round: R96, puzzle: Same State NG 2)" group=False
seq="GUAGCAUACCGAGGAUAUUCAUAUACAUGAGGAUCACCCAUGUUUAUAGGCCGAUUACGGCCUUGGGAGAAGGCGGAAUGCUAC [Xeonanis - 20 Mod25] (Eterna round: R96, puzzle: Same State NG 2)" group=False
seq="GGAAACUUGAGAGGAUAUGUAGAGGAUCACCCUACAGAAGGCUCAAAAGAGAGGAUAUGUAGAGGAUCACCCUACAGAAGGCUC [pwkr ssNG DX.11] (Eterna round: R96, puzzle: Same State NG 1)" group=False
seq="UGAAUAUUCACAGGAUAUGAGUUGUAAAGUGGAUCAGAAGGGUGGGUGUUUUGCACGGUGUGUUACAUGAGGAUCACCCAUGUU [SameState NG1 #24] (Eterna round: R96, puzzle: Same State NG 1)" group=True
